Hey, just so you know, these numbers are from patent US9700557B2.

- System: A-375 cells expressing mutant NRASQ61K
- assay remarks: ATP-based CTG cell viability assay, A-375 NRASQ61K
- condition info: Homo sapiens, A-375 NRAS^Q61K, 72 hours
quantity name: IC50

Memo: CN(C)C(=O)c1cc2cnc(Nc3ccc(N4CCNCC4)cn3)nc2n1C1CCCC1 , reported IC50: > 10 µM

---

- System: A-375 cells expressing mutant MEK1P124L
- assay remarks: microscopy (viable nuclei count) assay, A-375 MEK1P124L
- Type: cell-based
- condition info: Homo sapiens, A-375 MEK1^P124L, 72 hours
pIC50: −log10 of the molar value.
quantity name: pIC50

Value sought: pIC50, system A-375 cells expressing mutant MEK1P124L, item CN(C)C(=O)c1cc2cnc(Nc3ccc(N4CCNCC4)cn3)nc2n1C1CCCC1 . Result: < 5.00

---

- System: A-375 cells expressing mutant MEK1P124L
- assay remarks: ATP-based CTG cell viability assay, A-375 MEK1P124L
- condition info: Homo sapiens, A-375 MEK1^P124L, 72 hours
quantity name: IC50

Memo: CN(C)C(=O)c1cc2cnc(Nc3ccc(N4CCNCC4)cn3)nc2n1C1CCCC1 , reported IC50: > 10 µM
